Target under test: recombinant IL4I1 (Homo sapiens (Human), UniProt Q96RQ9)
Sequence (Q96RQ9 22-567): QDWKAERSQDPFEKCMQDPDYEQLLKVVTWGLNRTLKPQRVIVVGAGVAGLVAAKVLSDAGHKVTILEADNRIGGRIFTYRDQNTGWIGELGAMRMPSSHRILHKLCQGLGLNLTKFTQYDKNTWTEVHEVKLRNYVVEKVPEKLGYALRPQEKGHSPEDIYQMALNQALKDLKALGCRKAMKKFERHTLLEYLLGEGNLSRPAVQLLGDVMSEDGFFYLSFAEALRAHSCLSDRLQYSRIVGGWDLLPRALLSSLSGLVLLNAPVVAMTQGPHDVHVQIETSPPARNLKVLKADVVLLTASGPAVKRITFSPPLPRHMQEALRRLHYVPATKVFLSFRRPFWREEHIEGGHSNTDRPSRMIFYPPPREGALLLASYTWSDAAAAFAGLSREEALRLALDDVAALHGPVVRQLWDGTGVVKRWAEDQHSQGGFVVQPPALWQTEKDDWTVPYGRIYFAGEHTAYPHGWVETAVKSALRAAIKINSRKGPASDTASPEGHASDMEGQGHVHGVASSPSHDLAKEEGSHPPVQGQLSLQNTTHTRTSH
Assay text: IL4I1 Enzymatic Assay (Amplex Red/HRP coupled fluorescence detection of H2O2)
Format: biochemical
Study conditions: 240 min; recombinant IL4I1, four-hour pre-incubation with compound
// EC50 lookup, one value per entry
Form entry: value (nM) — number only.

# example entries with known answers
O=c1c(=O)n(C2CCCC2)ccn1Cc1cc(-c2ccccc2F)no1 : 2
O=c1c(=O)n(C23CC(F)(C2)C3)ccn1Cc1ccc(-n2cccn2)nc1 : 50

Then there is this compound:
Find the measured EC50 of O=C1C(=O)N(C2CCCC2)CCN1Cc1ccc(N2CCC2)nn1 and report it. 36
